System: Zymoseptoria tritici (SEPTTR-184)
assay_protocol: Cyp51 dsRNA tile (fragment) foliar application bioassay (Example 6)
Format: in vivo
condition_info: 1 day protectant; rate 50 ppm; average of 2 trials
Attribute: Disease Control (%) SEPTTR-184 1DP
Report as a plain number; the unit % is understood.

Answered cases to consult:
MgCyp51-T5: dsRNA tile of Zymoseptoria tritici Cyp51, 133 bp, location 1316-1448 (nucleic acid, listed as Zymoseptoria tritici) AATACAAGCACCTGTCCCCGACGACTGCCCTAGGAAGCATCGCCGAGGAGAAAGAAGACTATGGCTACGGCCTGGTAAGCAAGGGCGCGGCGTCGCCATACTTACCCTTTGGTGCGGGACGACACAGATGTAT
70
MgCyp51-T9: dsRNA tile of Zymoseptoria tritici Cyp51, 172 bp, location 1-172 (nucleic acid, listed as Zymoseptoria tritici, double-stranded RNA) ATGGGTCTCCTCCAGGAAGTCCTCGCGCAGTTCGACGCGCAATTCGGCCAGACCAGCCTCTGGAAACTTGTCGGACTTGGATTCCTCGCCTTCAGCACGCTCGCCATCCTCCTCAATGTCCTCTCACAACTTCTCTTCCGTGGCAAGTTGTCCGATCCGCCACTCGTATTCC
57
MgCyp51-T2: dsRNA tile of Zymoseptoria tritici Cyp51, 165 bp, location 48-212 (nucleic acid, listed as Zymoseptoria tritici) CCAGACCAGCCTCTGGAAACTTGTCGGACTTGGATTCCTCGCCTTCAGCACGCTCGCCATCCTCCTCAATGTCCTCTCACAACTTCTCTTCCGTGGCAAGTTGTCCGATCCGCCACTCGTATTCCACTGGGTGCCCTTCATCGGAAGCACCATCACATACGGCAT
70

# context switch: different molecule, same Disease Control (%) SEPTTR-184 1DP
Entry MgCyp51-T1: dsRNA tile of Zymoseptoria tritici Cyp51, 232 bp, location 166-397 (nucleic acid, listed as Zymoseptoria tritici) GTATTCCACTGGGTGCCCTTCATCGGAAGCACCATCACATACGGCATCGACCCATACAAGTTCTTCTTCTCCTGTCGGGAAAAGTATGGAGATGTCTTTACATTCATCCTGCTGGGAAAGAAGACGACGGTGTGCTTGGGCACCAAGGGCAATGATTTTATTTTGAATGGAAAACTGAAGGACGTCAACGCGGAGGAGATATACAGCCCGCTGACCACTCCTGTCTTTGGCA ; Disease Control (%) SEPTTR-184 1DP = 70

Sourced from patent US20180320179A1
